All values here come from patent US20240043568A1.

assayedTarget: T1, recombinant human GPC3 protein (human, UniProt P51654 25-563)
T1 construct: also called human GPC3 full-length protein; recombinant GPC3 protein
protocolSummary: BLI (Octet), antibody on Protein A probe
propertyMeasured: pKd
Keep in mind that pKd stands for -log10 of concentration in molar terms.

| binder | pKd |
| --- | --- |
| 28G4 (antibody, V domains shown, Chimeric human IgG1) VH: EVQLQQSGAELVRPGASVKLSCKALGYTFADYEIHWVKQTPVHGLEWIGAIHPGSGGTAYNQTFKGKATLTADKSSTTAYMELSSLTSEDSAVYYCTRYYSFAYWGQGTLVTVSA VL: DVLMTQTPLSLPVSLGDQASISCRSSQSIVHSNGNTYLQWYLQKPGQSPKLLIYKVSNRFSGVPDRFSGSGSGTDFTLKISRVEAEDLGVYYCFQGSHVPYTFGGGTKLEIK | 7.95 |
| 38D2 (antibody, V domains shown, Chimeric human IgG1) VH: QVQLQQSGAELVRPGASVKLSCKALGYTFADYEIHWVKQTPVHGLEWIGAIHPGSGGTAYNQTFEGKATLTADKSSTTAYMELSSLTSEDSAVYYCTRYYSFAYWGQGTLVTVSA VL: DVVMTQTPLSLPVSLGDQASISCRSSQSLENSNGNTYLNWYLQKPGQSPQLLIYRVSNRFSGVLDRFSGSGSGTDFTLKISRVEAEDLGVYFCLQVTHVPYTFGGGTKLEIK | 7.95 |
| 42A1 (antibody, V domains shown, Chimeric human IgG1) VH: QVQLQQSGAELVRPGASVKLSCKALGYTFADYEIHWVKQTPVHGLEWIGAIHPGSGGTAYSQTFKGKATLTADKSSTTAYMELSSLTSEDSAVYYCTRYFSFAYWGQGTLVTVSA VL: DVVVTQTPLSLPVSLGDQASISCRSSQSLVHSNGNTYLHWYLQKPGQSPKLLIYKVSNRFSGVPDRFSGSGSGTDFTLKISRVEAEDLGVYFCSQSTHAPYTFGGGTRLEIK | 7.39 |
| 39G4 (antibody, V domains shown, Chimeric human IgG1) VH: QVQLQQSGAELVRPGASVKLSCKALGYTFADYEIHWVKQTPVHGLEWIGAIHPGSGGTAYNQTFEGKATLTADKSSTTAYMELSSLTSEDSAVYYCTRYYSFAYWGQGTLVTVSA VL: DVVVTQTPLSLPVSLGDQASISCRSSQSLVHSNGNTYLHWYLQKPGQSPKLLIYKVSNRFSGVPDRFSGSGSGTDFTLKISRVEAEDLGVYFCSQSTHVPTFGGGTKLEIK | 7.58 |
| 29A10 (antibody, V domains shown, Chimeric human IgG1) VH: EVQLQQSGAELVRPGASVKLSCKALGYTFADYEIHWVKQTPVHGLEWIGAIHPGSGGTAYNQTFKGKATLTADKSSTTAYMELSSLTSEDSAVYYCTRYYSFAYWGQGTLVTVSA VL: DVVMTQTPLSLPVSLGDQASISCRSSQSLVHSNGNTYLHWYLQKPGQSPKLLIYKVSNRFSGVPDRFSGSGSGTDFTLKISRVEAEDLGVYFCSQSTHVPLTFGAGTKLEIK | 7.70 |
| 49G8 (antibody, V domains shown, Chimeric human IgG1; also called 49G8 chimeric antibody; Mab 49G8) VH: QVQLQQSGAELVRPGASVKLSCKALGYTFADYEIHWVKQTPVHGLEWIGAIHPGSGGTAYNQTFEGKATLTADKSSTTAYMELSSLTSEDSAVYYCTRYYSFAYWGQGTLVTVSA VL: DVVMTQTPLSLPVSLGDQASISCRSSQSIVHSNGNTYLEWYLQKPGQSPKLLIYKVSNRFSGVPDRFSGSGSGTDFTLKISRVEAEDLGVYFCLQVTHVPLTFGAGTKLELK | 8.48 |

Moving on to another binder below.
# binder 30B7 (antibody, V domains shown, Chimeric human IgG1) VH: QVQLQQSGAELVRPGASVRLSCKALGYTFTDYEMHWVKQTPVHGLEWIGAIHPGSGGTAYNQKFKGKATLTADKSSSTAYMELSSLTSEDSAVYYCTRYYSFAYWGQGTLVTVSA VL: DVLMTQTPLSLPVSLGDQASISCRSSQSLVHSNGNTYLHWYLQKPGQSPKLLIYKVSNRFSGVPDRFSGSGSGTDFTLKISRVEAEDLGVYFCSQSTHVPLTFGAGTKLEIK ; its pKd = 7.96
